Entry source: patent US8975417B2

Molecular target: His-CREBBP (1081-1197) bromodomain (Homo sapiens (Human))
Sequence (Q92793 1081-1197): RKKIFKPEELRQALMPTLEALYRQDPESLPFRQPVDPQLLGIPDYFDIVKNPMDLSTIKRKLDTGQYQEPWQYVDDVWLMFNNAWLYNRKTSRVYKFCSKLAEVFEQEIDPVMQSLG
Assay: AlphaScreen in-vitro binding assay for CREBBP
Details: biochemical
Method: AlphaScreen In-Vitro Binding Assay for CREBBP In order to assess bromodomain selectivity, we set up a binding assay using the bromodomain encoded by the CREBBP gene. […] Reactions were incubated at 30° C. for 35 minutes. […] After 60 minutes incubation at room temperature, plates were measured in a Perkin Elmer EnVision multilabel reader. IC50 values were determined from percent inhibition values at different compound concentrations by non-linear regression analysis. […]
Recorded log10 IC50 by entry
Note the log scale: values are log10 of IC50 expressed in µM.

A selection of reference data follows.
COCc1nn(C2CC2)c2c1C(c1ccc(Cl)cc1)N(c1cc(C)c3nnc(C)n3c1)C2=O (stereo not shown): 1.28
COCc1nn(C2CC2)c2c1C(c1ccc(Cl)cc1)N(c1cc(C)c(=O)n(C)c1)C2=O (racemic): 0.68
Cc1nn(C2CC2)c2c1[C@@H](c1ccc(Cl)cc1F)N(c1cc(C)c3nnc(C)n3c1)C2=O: 1.08
Cc1nn(C2CC2)c2c1[C@@H](c1ccc(Cl)cc1)N(c1cc(Cl)c(=O)n(C)c1)C2=O: 0.15
Cc1nn(C2CN(C)C2)c2c1C(c1ccc(Cl)cc1)N(c1cc(C)c(=O)n(C)c1)C2=O (stereo not shown): 1.18

Query: log10 IC50; subject: Cn1cc(N2C(=O)c3nn(C4CC4)cc3C2c2ccc(Cl)cc2)cc(Cl)c1=O (stereo not shown)
Result: 0.08

Query: Lookup Cc1cc(N2C(=O)c3nn(C4CC4)c(C)c3C2c2ccc(Cl)cc2)cn(C)c1=O (stereo not shown)
Result: 0.04

Query: Then CCn1nc2c(c1C)C(c1ccc(Cl)cc1)N(c1cc(C)c3nnc(C)n3c1)C2=O (stereo not shown) ?
Result: 0.08

Query: Query Cc1nn(C2CC2)c2c1C(c1cccc(C(F)(F)F)c1)N(c1cc(C)c(=O)n(C)c1)C2=O (stereo not shown) next
Result: 1.26

Query: Same lookup for Cc1[nH]nc2c1C(c1ccc(Cl)cc1)N(c1cc(Cl)c(=O)n(C)c1)C2=O (stereo not shown) , please.
Result: 0.75

Query: # iterate: Cc1nn(-c2ccnn2C)c2c1C(c1ccc(Cl)cc1)N(c1cc(C)c(=O)n(C)c1)C2=O (racemic)
Result: 0.81

* * *

target: nuclear BRD4-NUT foci in HCC2494 NUT midline carcinoma cells (Homo sapiens (Human), UniProt O60885+Q86Y26); assay: Nut-foci formation assay; details: 24 hours, read-out: HCS Brd4-NUT IC50
Below, each entry is listed with its recorded pIC50.
Reminder that pIC50 is minus the log10 of a molar concentration.

Some solved cases for reference:
Cc1cc(N2C(=O)c3c(c(CO)nn3C3CC3)C2c2ccc(Cl)cc2)cn2c(C)nnc12 (centres unmarked): 7.56
Cc1nn(C2CNC2)c2c1C(c1ccc(Cl)cc1)N(c1cc(C)c(=O)n(C)c1)C2=O (centres unmarked): 6.07
COCc1nn(C2CC2)c2c1C(c1ccc(Cl)cc1)N(c1cc(C)c3nnc(C)n3c1)C2=O (centres unmarked): 7.86
Cc1nn(C2CC2)c2c1C(c1ccc(OC(F)(F)F)cc1)N(c1cc(C)c(=O)n(C)c1)C2=O (centres unmarked): 6.72
Cc1ncccc1-n1nc(C)c2c1C(=O)N(c1cc(C)c(=O)n(C)c1)C2c1ccc(Cl)cc1 (centres unmarked): 7.53

Query: I'd like to know its pIC50. The compound in question is Cc1nn(C2CC2)c2c1C(c1cccc(OC(F)(F)F)c1)N(c1cc(C)c(=O)n(C)c1)C2=O (centres unmarked)
Result: 6.13

Query: // repeat for CCOC(=O)N1CC(n2nc(C)c3c2C(=O)N(c2cc(C)c4nnc(C)n4c2)C3c2ccc(Cl)cc2)C1 (centres unmarked) and report
Result: 7.36
